- System: Rat liver microsomal squalene synthase (Rattus norvegicus)
- Construct: Rat liver microsomes, the source of enzyme, were prepared; from tissue; host or cells: rat liver microsomes
- Assay Summary: In vitro inhibition of squalene synthase (rat liver microsomes, 3H-farnesyl diphosphate)
- Format: biochemical
- Condition Context: 1 μM; compared to controls with no test compound
Result Type: inhibition at 1 µM (%)

Consider the worked cases shown below.
Molecule	Result Type	Measurement Units	Readout Value
O=C(O)[C@H]1[C@H](C(=O)N(CCc2ccccc2)Cc2ccc(Oc3ccccc3)cc2)[C@H](C(=O)O)[C@H]1C(=O)N(CCc1ccccc1)Cc1ccc(Oc2ccccc2)cc1 [Example 78]	inhibition at 1 µM	%	32
CCCN(Cc1ccc(Oc2ccc3ccccc3c2)cc1)C(=O)C1C(C(=O)O)C(C(=O)N(CCC)Cc2ccc(Oc3ccc4ccccc4c3)cc2)C1C(=O)O (stereo not shown) [Example 58]	inhibition at 1 µM	%	50
CCCN(CCc1ccc(Oc2ccccc2)cc1)C(=O)C1C(C(=O)O)C(C(=O)N(CCC)CCc2ccc(Oc3ccccc3)cc2)C1C(=O)O (stereo not shown) [Example 67]	inhibition at 1 µM	%	47
CC[C@@H](C)N(Cc1ccc(Oc2ccccc2)cc1)C(=O)[C@H]1[C@H](C(=O)O)[C@H](C(=O)N(Cc2ccc(Oc3ccccc3)cc2)[C@H](C)CC)[C@H]1C(=O)O [Example 102]	inhibition at 1 µM	%	48
O=C(O)[C@H]1[C@H](C(=O)N(Cc2ccc(Oc3ccccc3)cc2)CC2CCCCC2)[C@H](C(=O)O)[C@H]1C(=O)N(Cc1ccc(Oc2ccccc2)cc1)CC1CCCCC1 [Example 91]	inhibition at 1 µM	%	41

A: O=C(O)[C@H]1[C@H](C(=O)N(Cc2ccc(F)cc2)Cc2ccc(Oc3ccccc3)cc2)[C@H](C(=O)O)[C@H]1C(=O)N(Cc1ccc(F)cc1)Cc1ccc(Oc2ccccc2)cc1 [Example 94]
B: COCCN(Cc1ccc(Oc2ccccc2)cc1)C(=O)C1C(C(=O)O)C(C(=O)N(CCOC)Cc2ccc(Oc3ccccc3)cc2)C1C(=O)O (stereo not shown) [Example 68]
-- ask Could you tell me which of A and B has the lower inhibition at 1 µM reading? Give the label of your selection.
-- reply A

a: CCCN(Cc1ccc(Oc2ccccc2)s1)C(=O)C1C(C(=O)O)C(C(=O)N(CCC)Cc2ccc(Oc3ccccc3)s2)C1C(=O)O (stereo not shown) [Example 53]
b: O=C(O)[C@H]1[C@H](C(=O)N(Cc2ccc(Oc3ccccc3)cc2)CC2CC2)[C@H](C(=O)O)[C@H]1C(=O)N(Cc1ccc(Oc2ccccc2)cc1)CC1CC1 [Example 93]
c: CCCCN(Cc1ccc(Oc2ccccc2)cc1)C(=O)[C@H]1[C@H](C(=O)O)[C@H](C(=O)N(CCCC)Cc2ccc(Oc3ccccc3)cc2)[C@H]1C(=O)O [Example 27]
-- ask Order the records, beginning with the lowest inhibition at 1 µM and ending with the highest. Put the labels in the requested order and list them out.
-- reply a, c, b
(a: 23%, c: 35%, b: 52%)

* * *

- System: Rat liver microsomal squalene synthase (Rattus norvegicus)
- Construct: Rat liver microsomes, the source of enzyme, were prepared; from tissue; host or cells: rat liver microsomes
- Sequence (Q02769 1-416): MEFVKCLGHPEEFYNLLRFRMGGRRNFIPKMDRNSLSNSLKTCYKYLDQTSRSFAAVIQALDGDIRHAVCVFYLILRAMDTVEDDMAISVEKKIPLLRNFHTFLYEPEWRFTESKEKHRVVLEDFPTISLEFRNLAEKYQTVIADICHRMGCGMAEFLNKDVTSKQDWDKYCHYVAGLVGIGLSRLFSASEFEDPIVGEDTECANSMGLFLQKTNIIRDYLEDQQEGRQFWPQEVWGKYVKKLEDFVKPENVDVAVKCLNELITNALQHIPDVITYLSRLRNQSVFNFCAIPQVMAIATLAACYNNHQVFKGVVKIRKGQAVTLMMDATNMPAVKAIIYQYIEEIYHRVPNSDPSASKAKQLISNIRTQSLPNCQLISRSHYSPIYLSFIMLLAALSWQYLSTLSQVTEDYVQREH
- Assay Summary: In vitro inhibition of squalene synthase (rat liver microsomes, 3H-farnesyl diphosphate)
- Assay type: biochemical
- Condition Context: 1 μM; compared to controls with no test compound
Result Type: inhibition at 1 µM (%)

Molecule	Readout Value
COc1ccc(CCN(Cc2ccc(Oc3ccccc3)cc2)C(=O)[C@H]2[C@H](C(=O)O)[C@H](C(=O)N(CCc3ccc(OC)c(OC)c3)Cc3ccc(Oc4ccccc4)cc3)[C@H]2C(=O)O)cc1OC	23
O=C(O)[C@H]1[C@H](C(=O)N(Cc2ccc(Oc3ccccc3)cc2)C2CCCCC2)[C@H](C(=O)O)[C@H]1C(=O)N(Cc1ccc(Oc2ccccc2)cc1)C1CCCCC1	55
O=C(O)[C@H]1[C@H](C(=O)N(Cc2ccccc2)Cc2ccc(Oc3ccccc3)cc2)[C@H](C(=O)O)[C@H]1C(=O)N(Cc1ccccc1)Cc1ccc(Oc2ccccc2)cc1	25

A: CCSCCN(Cc1ccc(Oc2ccccc2)cc1)C(=O)C1C(C(=O)O)C(C(=O)N(CCSCC)Cc2ccc(Oc3ccccc3)cc2)C1C(=O)O (centres unmarked)
B: O=C(O)C1C(C(=O)N(Cc2ccc(Oc3ccccc3)cc2)Cc2ccco2)C(C(=O)O)C1C(=O)N(Cc1ccc(Oc2ccccc2)cc1)Cc1ccco1 (centres unmarked)
-- ask Rank A against B by their inhibition at 1 µM values and give the higher one. The response must carry the label of the picked entry.
-- reply A

* * *

- System: Rat brain protein farnesyltransferase (Rattus norvegicus, UniProt Q02293+Q04631)
- Construct: The enzyme was purified according to Reiss, Y., et al., Cell, 62: 81-88 (1990), utilizing steps one through three; from tissue; host or cells: rat brain
- Assay Summary: In vitro inhibition of protein farnesyltransferase (biotin-lamin substrate, scintillation proximity assay)
- Format: biochemical
- Condition Context: 1 μM (footnote *); read-out: % Inhibition at 1 μM (protein farnesyltransferase, values marked *)
Result Type: inhibition at 1 µM (%)

Example cases with answers are listed next.
Molecule	System	Readout Value
CCCN(Cc1ccc(Oc2cccc(C)c2)cc1)C(=O)C1C(C(=O)O)C(C(=O)N(CCC)Cc2ccc(Oc3cccc(C)c3)cc2)C1C(=O)O (stereo not drawn)	Rat brain protein farnesyltransferase (Rattus norvegicus, UniProt Q02293+Q04631)	26
CCCN(Cc1ccc(Oc2nccs2)cc1)C(=O)C1C(C(=O)O)C(C(=O)N(CCC)Cc2ccc(Oc3nccs3)cc2)C1C(=O)O (stereo not drawn)	Rat brain protein farnesyltransferase (Rattus norvegicus, UniProt Q02293+Q04631)	22
CCCN(Cc1ccc(COc2ccccc2)cc1)C(=O)C1C(C(=O)O)C(C(=O)N(CCC)Cc2ccc(COc3ccccc3)cc2)C1C(=O)O (stereo not drawn)	Rat brain protein farnesyltransferase (Rattus norvegicus, UniProt Q02293+Q04631)	52

I: CCCN(CCc1ccc(Oc2ccccc2)cc1)C(=O)C1C(C(=O)O)C(C(=O)N(CCC)CCc2ccc(Oc3ccccc3)cc2)C1C(=O)O (stereo not drawn)
II: CSCCN(Cc1ccc(Oc2ccccc2)cc1)C(=O)C1C(C(=O)O)C(C(=O)N(CCSC)Cc2ccc(Oc3ccccc3)cc2)C1C(=O)O (stereo not drawn)
III: CCCN(Cc1ccc(Oc2ccccc2)cc1)C(=O)[C@H]1[C@H](C(=O)O)[C@H](C(=O)N(Cc2ccccc2)Cc2ccc(Oc3ccccc3)cc2)[C@H]1C(=O)O (relative stereo)
-- ask Sort these molecules on inhibition at 1 µM so the largest reading comes first. Output the labels ranked as instructed.
-- reply III, I, II
(III: 94%, I: 61%, II: 31%)

* * *

- System: Rat brain protein farnesyltransferase (Rattus norvegicus, UniProt Q02293+Q04631)
- Construct: The enzyme was purified according to Reiss, Y., et al., Cell, 62: 81-88 (1990), utilizing steps one through three; from tissue; host or cells: rat brain
- Assay Summary: In vitro inhibition of protein farnesyltransferase (biotin-lamin substrate, scintillation proximity assay)
- Assay type: biochemical
- Condition Context: 1 μM (footnote *); read-out: % Inhibition at 1 μM (protein farnesyltransferase, values marked *)
Result Type: inhibition at 1 µM (%)

1: O=C(O)[C@H]1[C@H](C(=O)N(Cc2ccc(Oc3ccccc3)cc2)CC2CCC2)[C@H](C(=O)O)[C@H]1C(=O)N(Cc1ccc(Oc2ccccc2)cc1)CC1CCC1
2: C[C@H](CCCc1ccccc1)CN(Cc1ccccc1)C(=O)[C@H]1[C@H](C(=O)O)[C@H](C(=O)N(Cc2ccccc2)C[C@H](C)CCCc2ccccc2)[C@H]1C(=O)O
3: CCCN(Cc1ccc(Oc2ccc3ccccc3c2)cc1)C(=O)C1C(C(=O)O)C(C(=O)N(CCC)Cc2ccc(Oc3ccc4ccccc4c3)cc2)C1C(=O)O (stereo not drawn)
-- ask Could you put the items above in increasing order of their inhibition at 1 µM? Sort the labels as requested; that list is your answer.
-- reply 1, 3, 2

I: O=C(O)[C@H]1[C@H](C(=O)N(Cc2ccc(Oc3ccccc3)cc2)CC2CCCC2)[C@H](C(=O)O)[C@H]1C(=O)N(Cc1ccc(Oc2ccccc2)cc1)CC1CCCC1
II: O=C(O)[C@H]1[C@H](C(=O)N2CC=C(c3ccc(Oc4ccccc4)cc3)CC2)[C@H](C(=O)O)[C@H]1C(=O)N1CC=C(c2ccc(Oc3ccccc3)cc2)CC1
-- ask Just tell me: smaller inhibition at 1 µM value, I or II ? Indicate which entry you chose by stating its label.
-- reply I
